# assayedSystem: ACE2, Q9BYF1
# Sequence (Q9BYF1 18-740 limits assumed): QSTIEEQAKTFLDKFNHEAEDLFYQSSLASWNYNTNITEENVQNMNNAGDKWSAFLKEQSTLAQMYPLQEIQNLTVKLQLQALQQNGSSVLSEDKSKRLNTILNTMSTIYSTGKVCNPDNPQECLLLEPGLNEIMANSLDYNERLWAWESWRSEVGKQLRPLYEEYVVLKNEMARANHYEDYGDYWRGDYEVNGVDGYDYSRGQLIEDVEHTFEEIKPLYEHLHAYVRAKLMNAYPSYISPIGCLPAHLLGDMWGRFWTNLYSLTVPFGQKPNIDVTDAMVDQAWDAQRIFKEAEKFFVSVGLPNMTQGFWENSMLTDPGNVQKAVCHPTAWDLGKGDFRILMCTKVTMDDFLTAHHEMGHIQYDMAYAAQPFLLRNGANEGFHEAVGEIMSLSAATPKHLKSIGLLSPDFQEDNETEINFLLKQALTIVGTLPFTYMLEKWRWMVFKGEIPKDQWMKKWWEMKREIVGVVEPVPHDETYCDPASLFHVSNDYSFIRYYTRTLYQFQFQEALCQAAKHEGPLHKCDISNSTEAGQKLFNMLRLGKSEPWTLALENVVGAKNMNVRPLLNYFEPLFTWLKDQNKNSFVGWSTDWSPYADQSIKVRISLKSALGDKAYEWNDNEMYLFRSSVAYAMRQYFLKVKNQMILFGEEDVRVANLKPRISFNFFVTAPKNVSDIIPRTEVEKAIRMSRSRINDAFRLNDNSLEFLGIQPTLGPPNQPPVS
# procedureDetails: inhibitor screening kit; SARS-CoV-2 Spike:ACE2 (Example 3 assay)
pIC50: −log10 of the molar value.
observedProperty: pIC50

Examples with answers:
[[record]]
binder = "VEGFNCYFLWRALWRLWRSLWRLLWK (modifications not checked) [Seq18 (LNCOV-16)]"
endpointresult = "< 5.00"

[[record]]
binder = "KVGGNYNYKLWRALWRLWRSLWRLLWK (modifications not checked) [Seq13 (LNCOV-11)]"
endpointresult = "< 5.00"


Next:
Exercise: Item under review: GNYNYLYRLLWRALWRLWRSLWRLLWK (modifications not checked) [seq14 (LNCOV-12)] . Reported pIC50?
Solution: < 5.00
